B1: TTC32 (parent)
chain: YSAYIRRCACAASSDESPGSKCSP

variants of: B1; assay: protein stability index of a GFP-peptide fusion (GPS, HEK-293T) (PSI 1-6); higher = more stable; settings: c terminus: a fixed tail appended;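 note: lentivirally expressed fusions sorted by FACS into six bins by GFP to DsRed ratio, PSI derived from sequencing read proportions per bin multiplied by bin number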
experimental.endpoint: protein stability index
// print number alone

Consider the following illustrative entries.
# mutation.id, experimental.endpoint, measured
data = [
    ("S14I", "protein stability index", 1.96),
    ("A11G", "protein stability index", 2.08),
    ("K21Y", "protein stability index", 2.8),
    ("A3Q", "protein stability index", 2.91),
]

# context switch: different variant, same protein stability index
The reported protein stability index of the variant S13R was 2.21

All values here come from the supplement of paper PMC10567573.
